Biological target: Histone deacetylase 8 (Homo sapiens, UniProt Q9BY41)
Sequence (Q9BY41 whole entry): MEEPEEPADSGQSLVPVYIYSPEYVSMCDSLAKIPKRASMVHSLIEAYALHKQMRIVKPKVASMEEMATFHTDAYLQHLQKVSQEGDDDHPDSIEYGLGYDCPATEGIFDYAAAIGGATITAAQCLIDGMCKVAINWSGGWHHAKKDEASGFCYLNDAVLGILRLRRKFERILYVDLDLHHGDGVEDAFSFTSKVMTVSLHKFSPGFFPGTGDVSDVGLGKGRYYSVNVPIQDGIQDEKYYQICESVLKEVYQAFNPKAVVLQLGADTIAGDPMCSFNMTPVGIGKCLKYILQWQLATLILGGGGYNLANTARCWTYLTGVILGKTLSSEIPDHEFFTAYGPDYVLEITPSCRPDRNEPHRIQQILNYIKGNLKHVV
REPORTED_PROPERTY: IC50 (nM)

STRUCTURE: Cc1cccc(NC(=O)[C@H](CCCCCS)NC(=O)[C@@H]2CCCC(=O)N2)c1
RECORDED_VALUE: 135

P. O=C1CCC[C@@H](C(=O)N[C@@H](CCCCCS)C(=O)N2CCc3ccccc3C2)N1
Q. O=C1NCCC[C@@H]1C(=O)N[C@@H](CCCCCS)C(=O)Nc1ccccc1
Problem: # query: argmin of IC50 over P and Q When you have decided, please share the label of that item.
Result: Q

P. O=C(CCCCCCS)NC1CCCC1
Q. Cc1cccc(NC(=O)[C@H](CCCCCS)NC(=O)[C@H]2CCC(=O)N2C)c1
R. O=C1CC[C@H](C(=O)N[C@@H](CCCCCS)C(=O)Nc2cccc(C(F)(F)F)c2)N1
Problem: Sort the compounds on IC50; start with the lowest figure. Please list the labels according to the requested order.
Result: Q, R, P
(Q: 99 nM, R: 316 nM, P: 2330 nM)

1. O=C1NC[C@@H](c2ccccc2)[C@H]1C(=O)N[C@@H](CCCCCS)C(=O)Nc1ccccc1
2. O=C1NC[C@@H](c2ccccc2)[C@@H]1C(=O)N[C@@H](CCCCCS)C(=O)Nc1ccccc1
Problem: # query: argmin of IC50 over 1 and 2 When you have decided, please share the label of that item.
Result: 2

====

pIC50: −log10 of the molar value.
// each record: one item and its pIC50 for Histone deacetylase 2 (Homo sapiens)
REPORTED_PROPERTY: pIC50

STRUCTURE: Cc1ccc(NC(=O)[C@H](CCCCCS)NC(=O)[C@@H]2CCCC(=O)N2)cc1
pIC50: 7.22

a. O=C(CCCCCCS)NC1CCCC1
b. O=C1CCC[C@@H](C(=O)N[C@@H](CCCCCS)C(=O)NCc2ccc(C(F)(F)F)cc2)N1
c. O=C1CCC[C@@H](C(=O)N[C@@H](CCCCCS)C(=O)NC2CCCC2)N1
d. O=C1CC[C@H](C(=O)N[C@H](CCCCCS)C(=O)Nc2ccccc2)N1
e. Cc1cccc(NC(=O)[C@H](CCCCCS)NC(=O)[C@H]2CCC(=O)N2C)c1
Problem: Rank by pIC50 (largest to smallest). Please list the labels according to the requested order.
Result: e, d, c, b, a
(e: 8.30, d: 6.77, c: 6.34, b: 5.75, a: 5.18)
